Below is a list of entries, each paired with its recorded viability at 72 h, 50 μg/ml value.
experiment: in vitro; assay type: cell-based; conditions: mouse, Cell viability (%)
test readout: viability at 72 h, 50 μg/ml (%)

{"columns": ["compound", "test readout", "test value"],
 "data": [
  ["O=C1Oc2ccc([N+](=O)[O-])cc2N/C1=C\\C(=O)c1ccccc1 [Compound 20t]", "viability at 72 h, 50 μg/ml", 80.5],
  ["COc1ccc(C(=O)/C=C2\\Nc3ccccc3OC2=O)cc1 [Compound 20b]", "viability at 72 h, 50 μg/ml", 88.4],
  ["O=C1Oc2cc([N+](=O)[O-])ccc2N/C1=C\\C(=O)c1ccc(F)cc1 [Compound 20x]", "viability at 72 h, 50 μg/ml", 86.7]
]}
